Tested on: RPMI-8226 leukemia
Assay: NCI-60 one-dose screen, 48 h (100 = growth as untreated, 0 = no growth, -100 = all killed)
Details: 10 µM unless noted
The panel holds about 83,000 compounds, 20% with a hit somewhere; the sample as a whole holds those more often.
Lab note - cut at 80% for growth: Criterion met if strictly below, Criterion not met if not.

Q) Is growth of O=C(Cn1ccc2ccccc21)Nc1ccc(-c2nc3ccccc3s2)cc1 strictly below 80%?
A) Criterion not met

Q) Field entry: CCN1CCN(c2cc(C)nc(N(CCCNc3ccnc4cc(Cl)ccc34)Cc3cccs3)n2)CC1
A) Criterion met

----------
Parameter growth: see the listing below.
Test system: NCI-H522 lung
Experiment: NCI-60 one-dose screen, 48 h (100 = growth as untreated, 0 = no growth, -100 = all killed)
Details: 10 µM unless noted
Protocol: Growth inhibition of the NCI-H522 human Non-Small Cell Lung tumor cell line is measured as a screen for anti-cancer activity. Cells are grown in 96 well plates and exposed to the test compound for 48 hours. Compounds are tested at a single concentration, which is 10^-5 M for most compounds. The reported endpoint is percent growth (GI% or GIPRCNT), where numbers from 0 - 100% represent growth inhibition, and numbers from -100% - 0 represent cell death. […]
About 83,000 compounds went through this panel and 20% of them were active in at least one assay; those are over-represented in the sample as a whole.
The response must be a number in % with no trailing unit.

Take a look at these entries with their results.
[
  {
    "compound": "CCc1nc2ccc(Cc3ccc(C(=O)NO)cc3)cc2c(=O)n1CCc1ccccc1",
    "observed.measurement": -86.5
  },
  {
    "compound": "Cc1ccc(-c2cc3c(SCC(=O)Nc4cc(C(F)(F)F)ccc4Cl)nccn3n2)cc1",
    "observed.measurement": 42.7
  },
  {
    "compound": "Cc1cn(-c2cc(NC(=O)c3ccc(C)c(Nc4nccc(-c5cnccn5)n4)c3)cc(C(F)(F)F)c2)cn1",
    "observed.measurement": 43.1
  }
]

Consider the additional compound presented here.
Q) What is its growth for NCI-H522 lung? Entry: CO[C@H](C(=O)N[C@@H](CCCCNC(=O)OCc1ccccc1)C(=O)OC(C)(C)C)[C@@H]1Cc2cc3cc(OC4CC(OC5CC(O)C(O)C(C)O5)C(O)C(C)O4)c(C)c(O)c3c(O)c2C(=O)[C@H]1OC1CC(OC2CC(OC3CC(C)(O)C(O)C(C)O3)C(O)C(C)O2)C(O)C(C)O1 (some centres undefined)
A) -16

----------
Test system: SF-539 CNS
Test: NCI-60 one-dose screen, 48 h (100 = growth as untreated, 0 = no growth, -100 = all killed)
Conditions: 10 µM unless noted
Compounds without any hit were thinned out: in the full panel of roughly 83,000, 20% have a hit.
recorded.endpoint: growth (%)
// note: answer is a bare numeric in %

Examples with answers:
[
  {
    "compound": "COc1ccc(F)c(F)c1C(=O)c1cnc(NC2CCN(S(C)(=O)=O)CC2)nc1N",
    "growth (%)": -33.8
  },
  {
    "compound": "CNC(=O)CN1CCC(Oc2cc3c(Nc4cccc(Cl)c4F)ncnc3cc2OC)CC1",
    "growth (%)": 72.8
  },
  {
    "compound": "CCCCOc1nc2cc(Cl)ccc2cc1/C=C/c1cc(/C=C/c2cc3ccc(Cl)cc3nc2OCCCC)n(-c2ccccc2)n1",
    "growth (%)": 91.9
  },
  {
    "compound": "S=C(NCc1ccc2c(c1)OCO2)N1CCN(c2ncnc3c2oc2ccccc23)CC1",
    "growth (%)": 39.7
  },
  {
    "compound": "CNC(=O)c1cc(Oc2cccc3nc(Nc4ccc(Oc5ccccc5)cc4)ccc23)ccn1",
    "growth (%)": 90.8
  }
]

Q) Query: growth; subject: NC(=O)N1N=C(c2ccc(Cl)cc2)CC1c1cn(-c2ccccc2)nc1-c1ccc(Cl)cc1 (centres undefined)
A) 37.8
